As shown below, each of these compounds has a reported melting point value.

# test.smiles, result
data = [
    ("CS(=O)(=O)O.CS(=O)(=O)O.Cc1cc(C(=O)NC(=N)N)cc2c1Oc1c(Cl)cc(NC(=O)CN3CCN(c4cccc(C(F)(F)F)c4)CC3)cc1CS2(=O)=O", "222 °C"),
    ("CS(=O)(=O)O.CS(=O)(=O)O.CS(=O)(=O)O.Cc1cc(C(=O)NC(=N)N)cc2c1Oc1c(Cl)cc(N3CCN(Cc4cccnc4)CC3)cc1CS2(=O)=O", "190 to 192 °C"),
    ("CS(=O)(=O)O.CS(=O)(=O)O.Cc1cc(C(=O)NC(=N)N)cc2c1Oc1c(Cl)cc(N(CCN3CCCC3)C(=O)C3CC3)cc1CS2(=O)=O", "178 to 179 °C"),
    ("CCN(CCN(CC)c1cc(Cl)c2c(c1)CS(=O)(=O)c1cc(C(=O)NC(=N)N)cc(C)c1O2)Cc1cccs1.CS(=O)(=O)O.CS(=O)(=O)O", "156 to 158 °C"),
]

Read the next record carefully.
# melting point of CS(=O)(=O)O.CS(=O)(=O)O.CS(=O)(=O)O.Cc1cc(C(=O)NC(=N)N)cc2c1Oc1c(Cl)cc(NCCN3CCN(C)CC3)cc1CS2(=O)=O = 184 to 186 °C

---

Entries and their melting point

Here is how some compounds turned out for melting point.
# test.smiles, measurement.label, result
records = [
    ("CS(=O)(=O)O.Cc1cc(C(=O)NC(=N)N)cc2c1Oc1c(Cl)cc(S(=O)(=O)Nc3nnc(C4CC4)s3)cc1CS2(=O)=O", "melting point", "221 to 222 °C"),
    ("CS(=O)(=O)O.CS(=O)(=O)O.CS(=O)(=O)O.Cc1cc(C(=O)NC(=N)N)cc2c1Oc1c(Cl)cc(N3CCN(CCN4CCOCC4)CC3)cc1CS2(=O)=O", "melting point", "185 to 187 °C"),
    ("CS(=O)(=O)O.N=C(N)NC(=O)c1ccc2c(c1)S(=O)(=O)Cc1c(F)cccc1O2", "melting point", "231 to 232 °C"),
    ("CS(=O)(=O)O.CS(=O)(=O)O.Cc1cc(C(=O)NC(=N)N)cc2c1Oc1c(Cl)cc(NC(=O)CNC(C)C)cc1CS2(=O)=O", "melting point", "192 to 194 °C"),
    ("CS(=O)(=O)O.CS(=O)(=O)O.Cc1cc(C(=O)NC(=N)N)cc2c1Oc1c(Cl)cc(NC(=O)CNC3CCCCC3)cc1CS2(=O)=O", "melting point", "194 to 196 °C"),
]

Next, consider the following compound.
Looking up CS(=O)(=O)O.CS(=O)(=O)O.Cc1cc(C(=O)NC(=N)N)cc2c1Oc1c(Cl)cc(NC(=O)Cn3ccnc3)cc1CS2(=O)=O , I see its melting point listed as 252 to 254 °C

---

measurement.label: melting point

Record summary for CS(=O)(=O)O.CS(=O)(=O)O.Cc1cc(C(=O)NC(=N)N)cc2c1Oc1c(Cl)cc(NCc3cccnc3)cc1CS2(=O)=O [Example 165] : reported melting point = 238 °C

Lab note: measured melting point of CS(=O)(=O)O.CS(=O)(=O)O.Cc1cc(C(=O)NC(=N)N)cc2c1Oc1c(Cl)cc(NC(=O)CN(C)C)cc1CS2(=O)=O [Example 142] was 190 to 191 °C

Notebook: COCC(=O)N(CCN1CCOCC1)c1cc(Cl)c2c(c1)CS(=O)(=O)c1cc(C(=O)NC(=N)N)cc(C)c1O2.CS(=O)(=O)O.CS(=O)(=O)O [Example 69] , melting point read as 168 to 169 °C
